These measurements were taken from the supplement of paper PMC10307832.

- Test system: NCI-H520
- Measurement description: relative viability (nuclei count vs DMSO), 5 days (fraction); higher = more cells survive
- Measurement setup: first compound 0.01581 µM
Quantity name: relative viability
Numbers only.

Below are 8 molecules. Give each one its relative viability.
1. COc1cc2nccc(Oc3ccc(NC(=O)Nc4cc(C)on4)c(Cl)c3)c2cc1OC [Tivozanib] + C[C@]1(O)C[C@@H](c2nc(-c3ccc4ccc(-c5ccccc5)nc4c3)c3c(N)nccn32)C1 [Linsitinib] (partner 1 µM)
2. Nc1ccn([C@@H]2O[C@H](CO)[C@@H](O)[C@@H]2O)c(=O)n1 [Cytarabine] + COc1cc2c(Oc3ccc(NC(=O)C4(C(=O)Nc5ccc(F)cc5)CC4)cc3F)ccnc2cc1OCCCN1CCOCC1 [Foretinib] (partner 0.25 µM)
3. COc1cc2nccc(Oc3ccc(NC(=O)Nc4cc(C)on4)c(Cl)c3)c2cc1OC [Tivozanib] + Nc1ncn([C@H]2C[C@H](O)[C@@H](CO)O2)c(=O)n1 [Decitabine] (partner 2 µM)
4. COc1cc2nccc(Oc3ccc(NC(=O)Nc4cc(C)on4)c(Cl)c3)c2cc1OC [Tivozanib] + CC1(C)CCC(c2ccc(Cl)cc2)=C(CN2CCN(c3ccc(C(=O)NS(=O)(=O)c4ccc(N[C@H](CCN5CCOCC5)CSc5ccccc5)c(S(=O)(=O)C(F)(F)F)c4)cc3)CC2)C1 [Navitoclax] (partner 0.5 µM)
5. Nc1ccn([C@@H]2O[C@H](CO)[C@@H](O)[C@@H]2O)c(=O)n1 [Cytarabine] + Cc1cc(Nc2cc(N3CCN(C)CC3)nc(Sc3ccc(NC(=O)C4CC4)cc3)n2)n[nH]1 [Tozasertib] (partner 0.1 µM)
6. Nc1ccn([C@@H]2O[C@H](CO)[C@@H](O)[C@@H]2O)c(=O)n1 [Cytarabine] + CS(=O)(=O)N1CCN(Cc2cc3nc(-c4cccc5[nH]ncc45)nc(N4CCOCC4)c3s2)CC1 [Pictilisib] (partner 1 µM)
7. COc1cc2nccc(Oc3ccc(NC(=O)Nc4cc(C)on4)c(Cl)c3)c2cc1OC [Tivozanib] + O=C(c1cc(Cc2n[nH]c(=O)c3ccccc23)ccc1F)N1CCN(C(=O)C2CC2)CC1 [Olaparib] (partner 8 µM)
8. COc1cc2nccc(Oc3ccc(NC(=O)Nc4cc(C)on4)c(Cl)c3)c2cc1OC [Tivozanib] + Nc1nc2[nH]cc(CCc3ccc(C(=O)N[C@@H](CCC(=O)O)C(=O)O)cc3)c2c(=O)[nH]1 [Pemetrexed] (partner 0.2 µM)

1: 0.966; 2: 0.795; 3: 0.448; 4: 0.962; 5: 0.463; 6: 0.276; 7: 0.354; 8: 0.572
